The reader will find reported kon values listed item by item below.
Biological target: T1, GST-human NOGO-A56 (human, UniProt P08515 1-218 = GST)
T1 construct: GST-tagged fusion expressed in E. coli BL21 and purified on glutathione-sepharose; coated on ELISA plates or amine-coupled to a CM5 chip; also called hNOGO; recombinant human NOGO
T1 sequence (P08515 1-218, tags or fused parts left off): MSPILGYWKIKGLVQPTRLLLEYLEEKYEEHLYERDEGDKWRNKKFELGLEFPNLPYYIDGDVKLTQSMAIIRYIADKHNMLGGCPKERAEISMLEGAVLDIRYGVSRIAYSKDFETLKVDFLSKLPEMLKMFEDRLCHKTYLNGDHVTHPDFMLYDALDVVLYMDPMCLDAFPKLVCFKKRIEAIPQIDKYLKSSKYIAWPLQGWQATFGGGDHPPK
Experiment: SPR (Biacore 3000), GST-human NOGO-A56 on CM5, antibody as analyte; single experiment
Experimental: hNOGO (GST-human NOGO-A56) was immobilised to a CM5 chip by primary amine coupling using the Biacore Wizard program designed for targeted immobilisation levels. The CM5 sensor surface was activated by passing a solution of 50 mM N-hydroxy-succinimide (NHS) and 200 mM N-ethyl-N′-dimethylaminopropyl […] (EDC). Then hNOGO in sodium acetate buffer, pH5.0 or pH 4.5, was passed over the chip and immobilised. […]
Could you give me the number in M⁻¹ s⁻¹? Just the number is fine.

binder="H6L6 (antibody, human IgG1, kappa, V domains shown) VH: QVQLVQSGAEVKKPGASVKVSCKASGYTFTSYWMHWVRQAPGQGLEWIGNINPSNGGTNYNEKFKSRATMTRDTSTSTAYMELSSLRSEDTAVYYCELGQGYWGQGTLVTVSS VL: DIVMTQSPLSLPVTPGEPASISCRSSKSLLYKDGKTYLNWFLQRPGQSPQLLIYLMSTRASGVPDRFSGSGSGTDFTLKISRVEAEDVGVYYCQQLVEYPLTFGGGTKVEIKR" assay_result=1.2e+06

We now examine a further binder.
Memo: H700L11 (antibody, human IgG1, kappa, V domains shown) VH: QVQLVQSGAEVKKPGASVKVSCKASGYTFTSYWMHWVRQAPGQGLEWIGNINPSNGGTNYNEKFKSRATLTVDKSTSTAYMELSSLRSEDTAVYYCELGQGYWGQGTLVTVSS VL: DIVITQSPLSLPVTLGQPASISCRSSKSLLYKDGKTYLNWFQQRPGQSPQLLIYLMSTRASGVPDRFSGGGSGTDFTLKISRVEAEDVGVYYCQQLVEYPLTFGQGTKLEIKR , reported kon: 1.19e+06
